Give measured viability at 4 h, 100 µM for each item. Keep answers brief.
test.summary: Dark toxicity against human KB cells assessed as cell survival at 100 uM after 4 hrs by MTT assay
Assay type: cell-based
setup.conditions: read-out: Survival
One number for each entry, in %.

CCCCCCOC(=O)CCC(=O)CN [HEXAMINOLEVULINATE]    9

### Prompt Form field: reported viability at 4 h, 100 µM of CCCCCCCCOC(=O)CCC(=O)CN
### Response 14

Data credit: ChEMBL document CHEMBL4049424
